So I've got a bunch of substances here, and I need their fiber diameter after CCM binding (confocal) values.
- experiment-notes: Confocal microscopy of CCM-bound fibers
- Assay type: physicochemical
- condition: 50 μM protein saturated with CCM, pH 4.0
Report the value in μm with no unit label.

// field: fiber diameter after CCM binding (confocal); key: Q3: Q variant with V44I pore mutation, SEQ ID NO: 12 (MRGSHHHHHHGSIEGRVKEILFLKNTAYQMLLELKETNEALYDIRHLLQQQSKL) [Protein Q3] ; value = 8.04

// field: fiber diameter after CCM binding (confocal); key: C2: C variant with redistributed electrostatic patches, SEQ ID NO: 22 (MRGSHHHHHHGSIEGRMQLAKHMLKELQKTNALQSVRTLLQQQVEEITQLKETVENSDSS) [Protein C2] ; value = 6.89

// field: fiber diameter after CCM binding (confocal); key: Q: rationally designed pentameric coiled-coil derived from C, SEQ ID NO: 23 (MRGSHHHHHHGSIEGRVKEITFLKNTAPQMLRELQETNAALQDVRELLRQQSKL) [reference compound] ; value = 14.74

// field: fiber diameter after CCM binding (confocal); key: Q2: coiled-coil protein redesigned from Q for reduced lateral assembly, SEQ ID NO: 11 (MRGSHHHHHHGSIEGRVKELLFLKKTAEQMLEELKETNKALHDVRHLLENQSKL) [Protein Q2] ; value = 7.17

* * *

- experiment-notes: ATR-FTIR peak deconvolution of secondary structure
- Type: physicochemical
- condition: native
So I've got a bunch of substances here, and I need their antiparallel β-sheet/aggregated strands values.
Report the value in % with no unit label.

// field: antiparallel β-sheet/aggregated strands; key: Q: rationally designed pentameric coiled-coil derived from C, SEQ ID NO: 23 (MRGSHHHHHHGSIEGRVKEITFLKNTAPQMLRELQETNAALQDVRELLRQQSKL) [reference compound] ; value = 13.0

// field: antiparallel β-sheet/aggregated strands; key: C2: C variant with redistributed electrostatic patches, SEQ ID NO: 22 (MRGSHHHHHHGSIEGRMQLAKHMLKELQKTNALQSVRTLLQQQVEEITQLKETVENSDSS) [Protein C2] ; value = 15.0

// field: antiparallel β-sheet/aggregated strands; key: Q3: Q variant with V44I pore mutation, SEQ ID NO: 12 (MRGSHHHHHHGSIEGRVKEILFLKNTAYQMLLELKETNEALYDIRHLLQQQSKL) [Protein Q3] ; value = 6.8

// field: antiparallel β-sheet/aggregated strands; key: Q2: coiled-coil protein redesigned from Q for reduced lateral assembly, SEQ ID NO: 11 (MRGSHHHHHHGSIEGRVKELLFLKKTAEQMLEELKETNKALHDVRHLLENQSKL) [Protein Q2] ; value = 20.6

* * *

- experiment-notes: Tube inversion concentration-temperature phase diagram
- Format: physicochemical
- condition: 50 mM Tris, 500 mM NaCl, pH 8.0
measurement-kind: solubility limit (mM)
Report the value in mM with no unit label.

// field: solubility limit; key: Q7: Q hydrogel variant from trimodal Monte Carlo search, SEQ ID NO: 16 (MRGSHHHHHHGSIEGRVKEMTFIKKTIEQQAEEMKEINKAIHDIRHALENISKK) [Protein Q7] ; value = 3.0

// field: solubility limit; key: Q5: Q hydrogel variant from Rosetta Monte Carlo search, SEQ ID NO: 14 (MRGSHHHHHHGSIEGRVKEITFIKKTIEQIAEEMKEINKAIHDIRHALENISKK) [Protein Q5] ; value = 3.5

// field: solubility limit; key: Q4: Q hydrogel variant from Rosetta Monte Carlo search, SEQ ID NO: 13 (MRGSHHHHHHGSIEGRVKEITFIKKTIEQIAEEMKEINKAIHDIRHALENISKK) [Protein Q4] ; value = 4.0

// field: solubility limit; key: Q6: Q hydrogel variant from trimodal Monte Carlo search, SEQ ID NO: 15 (MRGSHHHHHHGSIEGRVKEITFIKKQIEQIAEEMKEINKAIHDIRHALENISKK) [Protein Q6] ; value = 3.0

* * *

- experiment-notes: TEM of protein fibers
- Type: physicochemical
- condition: fibers, 50 mM NaH2PO4 pH 4.0
So I've got a bunch of substances here, and I need their average protein fiber diameter (TEM) values.
Report the value in nm with no unit label.

// field: average protein fiber diameter (TEM); key: Q3: Q variant with V44I pore mutation, SEQ ID NO: 12 (MRGSHHHHHHGSIEGRVKEILFLKNTAYQMLLELKETNEALYDIRHLLQQQSKL) [Protein Q3] ; value = 130

// field: average protein fiber diameter (TEM); key: C2: C variant with redistributed electrostatic patches, SEQ ID NO: 22 (MRGSHHHHHHGSIEGRMQLAKHMLKELQKTNALQSVRTLLQQQVEEITQLKETVENSDSS) [Protein C2] ; value = 73

// field: average protein fiber diameter (TEM); key: Q: rationally designed pentameric coiled-coil derived from C, SEQ ID NO: 23 (MRGSHHHHHHGSIEGRVKEITFLKNTAPQMLRELQETNAALQDVRELLRQQSKL) [reference compound] ; value = 208

// field: average protein fiber diameter (TEM); key: Q9: Monte-Carlo output sequence with increased ΔEEbcf from the Q domain; probably SEQ ID NO: 18 (MRGSHHHHHHGSIEGRVKEIKFLKNTAPQQLRELQNTNMALQDVRELLQQQSTL) [Protein Q9] ; value = 760

// field: average protein fiber diameter (TEM); key: Q2: coiled-coil protein redesigned from Q for reduced lateral assembly, SEQ ID NO: 11 (MRGSHHHHHHGSIEGRVKELLFLKKTAEQMLEELKETNKALHDVRHLLENQSKL) [Protein Q2] ; value = 91

* * *

So I've got a bunch of substances here, and I need their K values.
- experiment-notes: Fluorescence recovery after photobleaching (FRAP)
- condition: one-phase association fit
Report the value in s⁻¹ with no unit label.

// field: K; key: Q4: Q hydrogel variant from Rosetta Monte Carlo search, SEQ ID NO: 13 (MRGSHHHHHHGSIEGRVKEITFIKKTIEQIAEEMKEINKAIHDIRHALENISKK) [Protein Q4] ; value = 0.1

// field: K; key: Q6: Q hydrogel variant from trimodal Monte Carlo search, SEQ ID NO: 15 (MRGSHHHHHHGSIEGRVKEITFIKKQIEQIAEEMKEINKAIHDIRHALENISKK) [Protein Q6] ; value = 0.1

// field: K; key: Q3: Q variant with V44I pore mutation, SEQ ID NO: 12 (MRGSHHHHHHGSIEGRVKEILFLKNTAYQMLLELKETNEALYDIRHLLQQQSKL) [Protein Q3] ; value = 0.0
